Target: PXR LBD (GAL4 fusion) (UniProt O75469)
Sequence (O75469 whole entry, looked up, the tested form may be a part): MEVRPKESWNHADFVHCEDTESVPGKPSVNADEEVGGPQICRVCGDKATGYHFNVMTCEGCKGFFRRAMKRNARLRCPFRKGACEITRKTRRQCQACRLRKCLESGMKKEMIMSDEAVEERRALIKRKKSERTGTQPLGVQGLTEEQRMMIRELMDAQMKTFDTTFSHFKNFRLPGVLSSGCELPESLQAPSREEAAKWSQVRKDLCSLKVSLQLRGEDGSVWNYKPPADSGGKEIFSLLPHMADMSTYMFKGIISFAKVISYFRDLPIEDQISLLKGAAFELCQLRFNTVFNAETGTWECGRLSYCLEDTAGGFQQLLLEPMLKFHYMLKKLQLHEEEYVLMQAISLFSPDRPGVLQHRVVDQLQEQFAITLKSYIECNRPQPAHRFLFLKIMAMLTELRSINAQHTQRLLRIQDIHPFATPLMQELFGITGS
Assay: luciferase reporter transactivation, fold of solvent control; higher = stronger receptor activation
Conditions: concentration: 5 µM; HEK293T; exposure time: 24 h
observation-type: luciferase reporter transactivation

smiles_notation=O=S(=O)(O)CCC(F)(F)C(F)(F)C(F)(F)C(F)(F)C(F)(F)C(F)(F)C(F)(F)C(F)(F)F assay_system="PXR LBD (GAL4 fusion) (UniProt O75469)" observation_type="luciferase reporter transactivation" result=0.791
smiles_notation=O=S(=O)(O)CCC(F)(F)C(F)(F)C(F)(F)C(F)(F)C(F)(F)C(F)(F)F assay_system="PXR LBD (GAL4 fusion) (UniProt O75469)" observation_type="luciferase reporter transactivation" result=0.885
smiles_notation=OCCC(F)(F)C(F)(F)C(F)(F)C(F)(F)C(F)(F)C(F)(F)F assay_system="PXR LBD (GAL4 fusion) (UniProt O75469)" observation_type="luciferase reporter transactivation" result=0.76
smiles_notation=O=C(O)C(F)(F)C(F)(F)C(F)(F)C(F)(F)F assay_system="PXR LBD (GAL4 fusion) (UniProt O75469)" observation_type="luciferase reporter transactivation" result=0.802

---

Entries and their measured luciferase reporter transactivation follow.
Biological target: PXR LBD (GAL4 fusion) (UniProt O75469)
Experiment: luciferase reporter transactivation, fold of solvent control; higher = stronger receptor activation
Details: concentration: 25 µM; HEK293T; exposure time: 24 h
observation-type: luciferase reporter transactivation

smiles_notation=O=S(=O)(O)CCC(F)(F)C(F)(F)C(F)(F)C(F)(F)C(F)(F)C(F)(F)F result_number=0.756
smiles_notation=OCCC(F)(F)C(F)(F)C(F)(F)C(F)(F)C(F)(F)C(F)(F)F result_number=0.852
smiles_notation=O=C(O)C(F)(F)C(F)(F)C(F)(F)C(F)(F)F result_number=0.876
smiles_notation=O=S(=O)(O)CCC(F)(F)C(F)(F)C(F)(F)C(F)(F)C(F)(F)C(F)(F)C(F)(F)C(F)(F)F result_number=0.727

---

Listed next: entries and their corresponding luciferase reporter transactivation.
Target: FXR LBD (GAL4 fusion) (UniProt Q96RI1)
Sequence (Q96RI1 whole entry, looked up, the tested form may be a part): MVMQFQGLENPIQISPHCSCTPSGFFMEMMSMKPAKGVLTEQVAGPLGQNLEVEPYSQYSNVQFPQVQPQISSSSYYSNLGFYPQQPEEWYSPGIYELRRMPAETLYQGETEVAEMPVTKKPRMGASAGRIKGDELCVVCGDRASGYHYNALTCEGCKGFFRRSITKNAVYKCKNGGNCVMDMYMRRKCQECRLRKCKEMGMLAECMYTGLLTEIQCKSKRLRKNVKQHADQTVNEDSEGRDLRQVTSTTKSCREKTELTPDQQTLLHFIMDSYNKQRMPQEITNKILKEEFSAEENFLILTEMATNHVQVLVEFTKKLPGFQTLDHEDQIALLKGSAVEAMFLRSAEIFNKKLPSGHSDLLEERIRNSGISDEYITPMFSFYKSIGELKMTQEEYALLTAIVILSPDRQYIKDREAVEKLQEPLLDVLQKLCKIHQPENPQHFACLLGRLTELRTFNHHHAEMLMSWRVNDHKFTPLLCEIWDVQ
Assay: luciferase reporter transactivation, fold of solvent control; higher = stronger receptor activation
Conditions: concentration: 10 µM; HEK293T; exposure time: 24 h
observation-type: luciferase reporter transactivation

smiles_notation=O=S(=O)(O)CCC(F)(F)C(F)(F)C(F)(F)C(F)(F)C(F)(F)C(F)(F)C(F)(F)C(F)(F)F result_number=1.16
smiles_notation=OCCC(F)(F)C(F)(F)C(F)(F)C(F)(F)C(F)(F)C(F)(F)F result_number=0.96
smiles_notation=O=S(=O)(O)CCC(F)(F)C(F)(F)C(F)(F)C(F)(F)C(F)(F)C(F)(F)F result_number=1.32
smiles_notation=CC(C)c1onc(-c2c(Cl)cccc2Cl)c1COc1ccc(/C=C/c2cccc(C(=O)O)c2)c(Cl)c1 result_number=50.2

---

Tested on: PPARalpha LBD (GAL4 fusion)
Experiment: luciferase reporter transactivation, fold of solvent control; higher = stronger receptor activation
Conditions: concentration: 50 µM; HEK293T; exposure time: 24 h
observation-type: luciferase reporter transactivation

smiles_notation=OCCC(F)(F)C(F)(F)C(F)(F)C(F)(F)C(F)(F)C(F)(F)F observation_type="luciferase reporter transactivation" result_number=0.748
smiles_notation=O=S(=O)(O)CCC(F)(F)C(F)(F)C(F)(F)C(F)(F)C(F)(F)C(F)(F)F observation_type="luciferase reporter transactivation" result_number=1.13
smiles_notation=O=C(O)C(F)(F)C(F)(F)C(F)(F)C(F)(F)F observation_type="luciferase reporter transactivation" result_number=1.15
smiles_notation=O=S(=O)(O)CCC(F)(F)C(F)(F)C(F)(F)C(F)(F)C(F)(F)C(F)(F)C(F)(F)C(F)(F)F observation_type="luciferase reporter transactivation" result_number=1.33
